Tested on: HeLa, HT-29 and MCF-7 human tumor cell lines
Assay: Antiproliferative activity over the three human tumor cell lines (MTT)
Assay type: cell-based
Conditions: Homo sapiens, read-out: Cytotoxicity range (range of antiproliferative IC50 values)
Experimental: The in vitro antiproliferative activity of the synthesized compounds was evaluated by a colorimetric reaction, using the MTT reagent. […] The antiproliferative activity of the compounds against three human tumor cell lines of different origins (i.e., HeLa cervix epithelioid carcinoma, HT-29 colon adenocarcinoma and MCF-7 breast adenocarcinoma) was evaluated by the MTT method. […]
pIC50: −log10 of the molar value.
PARAMETER MEASURED: pIC50

Q: Entry under review: `C=C(c1ccc([N+](C)(C)C)cc1)c1cc(OC)c(OC)c(OC)c1.[I-]` . Reported pIC50?
Result: < 6.00

###

Test system: MCF-7 breast adenocarcinoma
Assay: MTT cell antiproliferative assay, MCF-7
Assay type: cell-based
Settings: Homo sapiens, MCF7, 72 h
PARAMETER MEASURED: log10(IC50) (log10 of the value in nM)
Parameter value (number): base-10 log of IC50 in nM.

Here are 6 molecules together with their reported answers.
COc1cc(C=Cc2ccc(N3CCCC3)cc2)cc(OC)c1OC [Compound 8i] | 2.15
COc1ccc(C(=NO)c2ccc(N(C)C)cc2)c(OC)c1OC [Compound 2d] | 2.44
COc1cc(C(=O)c2ccnc(N3CCCC3)c2)cc(OC)c1OC [Compound 1h] | 1.23
COc1cc(C=Cc2ccc(N(C)C)nc2)cc(OC)c1OC [Compound 8b] | 1.80
COc1cc(C(=O)c2ccc(N3CCCC3)nc2)cc(OC)c1OC [Compound 1c] | 3.37
COc1ccc(C(=O)c2ccc(N(C)C)cc2)c(OC)c1OC [Compound 1d] | 2.61

# return log10(IC50) for each item in the list
1. C=C(c1ccc(N(C)C)nc1)c1cc(OC)c(OC)c(OC)c1 [Compound 3b]
2. COc1cc(C(=O)c2ccnc(N(C)C)c2)cc(OC)c1OC [Compound 1g]
3. COc1cc(C=Cc2ccc(N(C)C)cc2)cc(OC)c1OC [Compound 8a]

Result:
1. 1.91
2. 2.35
3. 2.44

Hey, can you go through the list below and give me log10(IC50) for every item?
1. COc1cc(C(=NO)c2ccnc(N(C)C)c2)cc(OC)c1OC [Compound 2g]
2. C=C(c1ccnc(N(C)C)c1)c1cc(OC)c(OC)c(OC)c1 [Compound 3g]
3. COc1cc(C(=O)c2cccc(N(C)C)c2)cc(OC)c1OC [Compound 1f]
4. C=C(c1ccnc(N2CCCC2)c1)c1cc(OC)c(OC)c(OC)c1 [Compound 3h]
5. C=C(c1ccc(N(C)C)cc1)c1ccc(OC)c(OC)c1OC [Compound 3d]

Result:
1: 2.61; 2: 2.56; 3: 2.51; 4: 2.50; 5: 3.30

###

Provide the reported solubility at 48 h of each item.
Assay: Aqueous solubility determination (shake flask, UV)
Type: physicochemical
Settings: aqueous buffer, thermodynamic from solid; phosphate buffer pH 7.0, 48 h stirring, filtered, UV; read-out: Solub.
Give bare numbers, in µg/mL.

Would you please look over these solved cases?
COc1cc(C(=NO)c2ccc(N(C)C)cc2)cc(OC)c1OC | 74
C=C(c1cccc(N(C)C)c1)c1cc(OC)c(OC)c(OC)c1 | 21
C=C(c1ccc(N(C)C)cc1)c1cc(OC)c(OC)c(OC)c1 | 30
COc1cc(C(=NO)c2ccc([N+](C)(C)C)cc2)cc(OC)c1OC.[I-] | 1500

Consider the additional compound presented here.
Q: Find the recorded solubility at 48 h belonging to `C=C(c1ccc([N+](C)(C)C)cc1)c1cc(OC)c(OC)c(OC)c1.[I-]` and report it.
Result: 2500
